Test system: human cannabinoid receptor 1 (huCB1), full length, expressed on cells (human, UniProt P21554 1-472)
Sequence (P21554 whole entry): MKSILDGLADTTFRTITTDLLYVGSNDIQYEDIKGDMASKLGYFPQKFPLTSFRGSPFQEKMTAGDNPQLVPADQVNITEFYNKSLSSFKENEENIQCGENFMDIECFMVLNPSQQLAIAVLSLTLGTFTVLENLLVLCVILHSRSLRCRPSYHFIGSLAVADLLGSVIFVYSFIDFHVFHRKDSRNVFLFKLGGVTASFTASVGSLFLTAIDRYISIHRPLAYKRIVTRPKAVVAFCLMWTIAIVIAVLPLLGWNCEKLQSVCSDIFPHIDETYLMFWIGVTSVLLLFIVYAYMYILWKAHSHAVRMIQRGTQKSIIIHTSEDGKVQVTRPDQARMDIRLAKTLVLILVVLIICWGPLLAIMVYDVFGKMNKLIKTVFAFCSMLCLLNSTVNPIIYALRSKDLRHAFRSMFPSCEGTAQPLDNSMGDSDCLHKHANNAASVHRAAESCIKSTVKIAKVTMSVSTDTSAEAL
Assay info: cell-based or functional assay
Property label: Mean IC50 (nM), cAMP antagonist assay

query: # return recorded Mean IC50 (nM), cAMP antagonist assay for input LIBC528169-1 (antibody, V domains shown) VH: QVQLQESGPGLVKPSQTLSLTCTVSGGSIRRGGDYWSWIRQHPGKGLEWIGHIYQSGSTKYNPSFEDRATISVNTYKNQFSLKLSSVTAADTAVYYCARDYDILTGYSYYYYGMDVWGQGTTVTVSS VL: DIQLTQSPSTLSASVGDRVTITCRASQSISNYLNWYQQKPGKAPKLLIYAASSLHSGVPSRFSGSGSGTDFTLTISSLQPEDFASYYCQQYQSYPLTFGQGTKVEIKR
result: 7.81 nM
